Tested on: mouse colon cancer cell line (CT-26)
assay protocol: MTT cytotoxic assay, CT-26
Assay type: cell-based
measurement context: Mus musculus, CT26, 48 h, read-out: IC50 CT-26
measured attribute: IC50

// IC50 lookup, molecule = COC(=O)[C@]1(C)CCC[C@]2(C)c3cc(Br)c([N+](=O)[O-])c([N+](=O)[O-])c3CCC12 (stereo partly shown) , result: 35.1 µM

---

System: human normal hepatocyte cell line (QSG-7701)
assay protocol: MTT cytotoxic assay, QSG-7701
Type: cell-based
measurement context: QSG7701, 48 h exposure
measured attribute: pIC50
Just the number, please; pIC50 means minus log10 of the concentration in mol/L.

Example compounds with recorded pIC50:
>  <compound>
COC(=O)[C@]1(C)CCC[C@]2(C)c3cc(Br)c4nc(-c5ccc6[nH]ccc6c5)[nH]c4c3CCC12 (stereo partly shown)

>  <measured target>
human normal hepatocyte cell line (QSG-7701)

>  <pIC50>
5.24

$$$$
>  <compound>
COC(=O)Nc1nc2ccc(C(=O)c3cccs3)cc2[nH]1 [Nocodazole, nocodazole, reference compound]

>  <measured target>
human normal hepatocyte cell line (QSG-7701)

>  <pIC50>
4.86

$$$$
>  <compound>
COC(=O)[C@]1(C)CCC[C@]2(C)c3cc(Br)c4nc(-c5c[nH]c6ccccc56)[nH]c4c3CCC12 (stereo partly shown)

>  <measured target>
human normal hepatocyte cell line (QSG-7701)

>  <pIC50>
5.07

$$$$
>  <compound>
COC(=O)[C@]1(C)CCC[C@]2(C)c3cc(-c4cc(OC)c(OC)c(OC)c4)c4nc(-c5ccc6[nH]ccc6c5)[nH]c4c3CCC12 (stereo partly shown)

>  <measured target>
human normal hepatocyte cell line (QSG-7701)

>  <pIC50>
4.89

$$$$
>  <compound>
COC(=O)[C@]1(C)CCC[C@]2(C)c3cc(-c4cc(OC)c(OC)c(OC)c4)c4nc(-c5c[nH]c6ccccc56)[nH]c4c3CCC12 (stereo partly shown)

>  <measured target>
human normal hepatocyte cell line (QSG-7701)

>  <pIC50>
4.93

$$$$

Please examine the following record next.
According to the records, this compound COC(=O)[C@]1(C)CCC[C@]2(C)c3cc(-c4cc(OC)c(OC)c(OC)c4)c4nc(-c5ccc(F)cc5)[nH]c4c3CCC12 (stereo partly shown) displays pIC50 of 4.44

Data origin: paper PMC9080489
